TARGET: Hepatocyte growth factor receptor (Mus musculus)
RUN DESCRIPTION: Inhibition of TPR-Met phosphorylation in mouse BAF3 cells at 10 uM after 2 hrs by Western blot analysis
Format: cell-based
Activity calls are given as the source filed them. The rule behind the calls is not given here.

{"SMILES STRING": "Nc1c(S(=O)(=O)O)cc(Nc2ccc(-c3ccc(Nc4cc(S(=O)(=O)O)c(N)c5c4C(=O)c4ccccc4C5=O)cc3)cc2)c2c1C(=O)c1ccccc1C2=O", "TARGET": "Hepatocyte growth factor receptor (Mus musculus)", "inhibition": "inactive"}
{"SMILES STRING": "Nc1c(S(=O)(=O)O)cc(Nc2ccc(-c3ccc(Nc4ncccn4)cc3)cc2)c2c1C(=O)c1ccccc1C2=O", "TARGET": "Hepatocyte growth factor receptor (Mus musculus)", "inhibition": "inactive"}
{"SMILES STRING": "Cc1cc(-c2ccc(Nc3cc(S(=O)(=O)O)c(N)c4c3C(=O)c3ccccc3C4=O)c(C)c2)ccc1N", "TARGET": "Hepatocyte growth factor receptor (Mus musculus)", "inhibition": "inactive"}
{"SMILES STRING": "Nc1ccc(-c2ccc(Nc3cc(S(=O)(=O)O)c(N)c4c3C(=O)c3ccccc3C4=O)cc2)cc1", "TARGET": "Hepatocyte growth factor receptor (Mus musculus)", "inhibition": "inactive"}
{"SMILES STRING": "Cc1cc(Nc2cc(S(=O)(=O)O)c(N)c3c2C(=O)c2ccccc2C3=O)ccc1-c1ccc(Nc2cc(S(=O)(=O)O)c(N)c3c2C(=O)c2ccccc2C3=O)cc1C", "TARGET": "Hepatocyte growth factor receptor (Mus musculus)", "inhibition": "inactive"}
{"SMILES STRING": "Nc1c(S(=O)(=O)O)cc(Nc2ccc(Cc3ccc(Nc4cc(S(=O)(=O)O)c(N)c5c4C(=O)c4ccccc4C5=O)cc3)cc2)c2c1C(=O)c1ccccc1C2=O", "TARGET": "Hepatocyte growth factor receptor (Mus musculus)", "inhibition": "inactive"}
{"SMILES STRING": "Cc1cc(-c2ccc(Nc3cc(S(=O)(=O)O)c(N)c4c3C(=O)c3ccccc3C4=O)c(C)c2)ccc1Nc1cc(S(=O)(=O)O)c(N)c2c1C(=O)c1ccccc1C2=O", "TARGET": "Hepatocyte growth factor receptor (Mus musculus)", "inhibition": "inactive"}
{"SMILES STRING": "CC(=O)Nc1ccc(-c2ccc(Nc3cc(S(=O)(=O)O)c(N)c4c3C(=O)c3ccccc3C4=O)cc2)cc1", "TARGET": "Hepatocyte growth factor receptor (Mus musculus)", "inhibition": "inactive"}
